src = patent US20080269139A1

Property: Percent Bound at 0.1 nM; scope: individual binders
test-system: T1, FGF-5 (UniProt P12034 23-268, limits assumed, biotinylated with EZ-Link Sulfo-NHS-Biotin in the BioVeris assay only)
T1 construct: also called bFGF5 (biotinylated, BioVeris assay); FGF-5, carrier-free (R&D Systems #237-F5/CF)
T1 sequence (looked up): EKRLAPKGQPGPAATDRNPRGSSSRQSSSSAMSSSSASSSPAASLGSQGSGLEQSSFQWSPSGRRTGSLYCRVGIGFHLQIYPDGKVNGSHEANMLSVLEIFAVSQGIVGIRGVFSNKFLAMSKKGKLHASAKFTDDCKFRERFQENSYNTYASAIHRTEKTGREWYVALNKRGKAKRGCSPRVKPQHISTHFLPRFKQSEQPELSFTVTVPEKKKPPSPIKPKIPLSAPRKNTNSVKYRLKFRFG
protocol: BLA binding assay, purified peptide-BLA fusion on FGF-5-coated plate, nitrocefin

# binder, Percent Bound at 0.1 nM, %
records = [
    ("2H9 peptide-BLA fusion (other) CHYLLTNYCTPVSEKQLAEVVANTITPLMKAQSVPGMAVAVIYQGKPHYYTFGKADIAANKPVTPQTLFELGSISKTFTGVLGGDAIARGEISLDDAVTRYWPQLTGKQWQGIRMLDLATYTAGGLPLQVPDEVTDNASLLRFYQNWQPQWKPGTTRLYANASIGLFGALAVKPSGMPYEQAMTTRVLKPLKLDHTWINVPKAEEAHYAWGYRDGKAVRVSPGMLDAQAYGVKTNVQDMANWVMANMAPENVADASLKQGIALAQSRYWRIGSMYQGLGWEMLNWPVEANTVVEGSDSKVALAPLPVAEVNPPAPPVKASWVHKTGSTGGFGSYVAFIPEKQIGIVMLANTSYPNPARVEAAYHILEALQHHHHHH", 5),
    ("2E2 peptide-BLA fusion (other) CLTVLWTTCTPVSEKQLAEVVANTITPLMKAQSVPGMAVAVIYQGKPHYYTFGKADIAANKPVTPQTLFELGSISKTFTGVLGGDAIARGEISLDDAVTRYWPQLTGKQWQGIRMLDLATYTAGGLPLQVPDEVTDNASLLRFYQNWQPQWKPGTTRLYANASIGLFGALAVKPSGMPYEQAMTTRVLKPLKLDHTWINVPKAEEAHYAWGYRDGKAVRVSPGMLDAQAYGVKTNVQDMANWVMANMAPENVADASLKQGIALAQSRYWRIGSMYQGLGWEMLNWPVEANTVVEGSDSKVALAPLPVAEVNPPAPPVKASWVHKTGSTGGFGSYVAFIPEKQIGIVMLANTSYPNPARVEAAYHILEALQHHHHHH", 7),
    ("1A6 peptide-BLA fusion (other) CEEIWTMLCTPVSEKQLAEVVANTITPLMKAQSVPGMAVAVIYQGKPHYYTFGKADIAANKPVTPQTLFELGSISKTFTGVLGGDAIARGEISLDDAVTRYWPQLTGKQWQGIRMLDLATYTAGGLPLQVPDEVTDNASLLRFYQNWQPQWKPGTTRLYANASIGLFGALAVKPSGMPYEQAMTTRVLKPLKLDHTWINVPKAEEAHYAWGYRDGKAVRVSPGMLDAQAYGVKTNVQDMANWVMANMAPENVADASLKQGIALAQSRYWRIGSMYQGLGWEMLNWPVEANTVVEGSDSKVALAPLPVAEVNPPAPPVKASWVHKTGSTGGFGSYVAFIPEKQIGIVMLANTSYPNPARVEAAYHILEALQHHHHHH", 8),
    ("2H10 peptide-BLA fusion (other) CRIHLAHKCTPVSEKQLAEVVANTITPLMKAQSVPGMAVAVIYQGKPHYYTFGKADIAANKPVTPQTLFELGSISKTFTGVLGGDAIARGEISLDDAVTRYWPQLTGKQWQGIRMLDLATYTAGGLPLQVPDEVTDNASLLRFYQNWQPQWKPGTTRLYANASIGLFGALAVKPSGMPYEQAMTTRVLKPLKLDHTWINVPKAEEAHYAWGYRDGKAVRVSPGMLDAQAYGVKTNVQDMANWVMANMAPENVADASLKQGIALAQSRYWRIGSMYQGLGWEMLNWPVEANTVVEGSDSKVALAPLPVAEVNPPAPPVKASWVHKTGSTGGFGSYVAFIPEKQIGIVMLANTSYPNPARVEAAYHILEALQHHHHHH", 8),
]
